Data credit: the supplement of paper PMC12764529

Assay: folding stability dG unfold (combined trypsin and chymotrypsin); higher = more stable
Entry flag: fulfilled if folding stability dG unfold reaches 2 kcal/mol; not fulfilled if it does not.

# input Check the entry SAGGSAGGSAGVEINIFMPSWEQAKHRAKSIARELRERGLPPNAEIKIKIHPIDPEDMGPSAGGSAGGSAGG [r17_180_TrROS] : does folding stability dG unfold equal or exceed 2 kcal/mol?
# output not fulfilled

# input Exam item: decide whether the reported folding stability dG unfold for SAGGSAVILIPIPPDDPNFWEMIKDFQEEGKPVIIRNPEGEWMVFKPNGPVKPVDSPEQLLEAGITSAGGSA [r15_94_TrROS] is at least 2 kcal/mol.
# output not fulfilled

# input Does the reported folding stability dG unfold for SAGGSAENDRFIVRVTIQMRNPGDGEKRTHTIPWFEFEPGKPAEEFAIDIADDFGIDNIDVEVYPLSAGGSA [r15_540_TrROS] fall at or above the 2 kcal/mol mark?
# output not fulfilled

# input Dear colleague, could you confirm whether SAGGSALVIKKVEPNKGYLVFESKEDDKPIVRVKLETLVAALEEDRIPPALRRLLAENPDQVFNPVSAGGSA [r15_359_TrMRF] has folding stability dG unfold at or above 2 kcal/mol?
# output not fulfilled

# input Decide: is the reported value of folding stability dG unfold for SAGGGRVAVLKVEVRNPETGETTEVELVLPLPPEMTPEEAEEAAREAARTLAESTGVEVEIKSVELLSAGGS [r8_312_TrMRF] equal to or greater than 2 kcal/mol?
# output fulfilled

# input Kindly determine if folding stability dG unfold recorded for SAGGSAGGSAGGKKVKVLTLTIELEVKDSNGKKYKVKATVTLIYDEKTKKLYLNISIEPSAGGSAGGSAGGS [r10_795_TrROS_Hall] is above or exactly 2 kcal/mol.
# output fulfilled

# input Threshold query (folding stability dG unfold >= 2 kcal/mol) on SMKPGAEITIEPFPDGMYKITLPDGRERIFSPNGIAIEITPNKIKIEMFHPGKPIMEMEVEIPPPDPNDPSA [r9_901_TrROS]
# output not fulfilled

###

Assay: folding stability dG unfold from trypsin proteolysis; higher = more stable
Mark yes for reported folding stability dG unfold of 0.9 kcal/mol or greater; mark no for anything smaller.

# input Could you tell me if the measured folding stability dG unfold of SGEFKPIATIDAKDGKPEAIIDSVKELLPDSGPVLVVLDLPDGPPKVNVIDPSTGKVREFVPGGNITIVPSA [r9_853_TrMRF] reaches 0.9 kcal/mol or more?
# output no

# input Decide: is the reported value of folding stability dG unfold for SSYTVLEEKVESDPNKDSLTYLTLKTPDGRELTVTEPVKKVDDSWITNSTLTDPVGGRTTTSTTTVKLSGSA [r9_269_JUSTAS] equal to or greater than 0.9 kcal/mol?
# output no

# input Has SAGGSAGGSAMITTYDPKTGLVYELVPDPVPGVGVERLVVRVVTVEEFPDAIVRKVEVRPESAGGSAGGSAG [r3_409_JUSTAS] a recorded folding stability dG unfold greater than or equal to 0.9 kcal/mol?
# output no

# input Hello, I need to know if SAGDALKEAAKPGEEVTVRLRLTLTFTTETFTDDDGRERTVETVTVTVELEARVVAVDPETGELVIELRSAG [r5_5_TrROS_Hall] has measured folding stability dG unfold not below 0.9 kcal/mol. Thanks!
# output yes

# input Is folding stability dG unfold for SAGGSAGGSAGGSFDIEQERNPENGYHRVTIDFPNGPPVEIWMPPGSTLEQIEDLAKQFSAGGSAGGSAGGS [r4_205_TrROS] at or above 0.9 kcal/mol?
# output yes

# input Given the entry SAGGSAGGSAGGSPVAAKTLSKSTSLLPNGKVKTSTTTAFPTGETTTTTTTTPLSLTLTSAGGSAGGSAGGS [r10_1206_JUSTAS] , answer whether its folding stability dG unfold meets or surpasses 0.9 kcal/mol.
# output no

# input Please indicate if the recorded folding stability dG unfold for SAGMTITVESLEDALALAEELAEKYPGLKVTVEVRLSPDGKTVEVRVTIEPAPPVKVVDPETGEEVEEESAG [r5_870_TrROS_Hall] meets or exceeds 0.9 kcal/mol.
# output yes

# input Confirm if folding stability dG unfold reported for the sequence SAGGSAGGSGKPEKVKITYTKDTNTNKYTATITFENGPTYKITFPTKTPEEAIEQAKKLIEASSAGGSAGGS [r12_339_TrMRF] is 0.9 kcal/mol or above.
# output yes

# input Could you verify whether the entry SAGSMLSVEEVEVTYNNPETGTPATIKLTVPVFYDPVTGRVEVEVEVEPSPEVPEEVAKEIAEKVKEKRSAG [r14_152_JUSTAS] shows folding stability dG unfold of no less than 0.9 kcal/mol?
# output no

# input Reported folding stability dG unfold reaches at least 0.9 kcal/mol for SAGGSAGGSAGLELTVGDVPVDVYVDPDTERALAYFPLFNRVAIVDLPTGKVYVVPLDDILSAGGSAGGSAG [r3_137_TrMRF] ?
# output yes

# input Entry SAGGMTSTLTVTLTVSPSTSPEEAAERAAEALEAAHPDRTVVIESITVTPATGKVVATIKVVGDTGASAGGS [r8_26_JUSTAS] : is its folding stability dG unfold no less than 0.9 kcal/mol?
# output yes

# input Reported folding stability dG unfold reaches at least 0.9 kcal/mol for SAGGKTVVLEFDSVEDLKAALPPGAEVEIVVIREDGSKKTITVPAKDLKLELKPGEKYRVVIKVKPKKSAGG [r13_461_TrROS_Hall] ?
# output yes

# input Kindly determine if folding stability dG unfold recorded for SAGGMTLITIEHPDGEVIEFELPGATEEEAEAIAEEIAKRHDPGKVKVTFEKVPEKGVDPTKPVAVKSAGGS [r8_167_JUSTAS] is above or exactly 0.9 kcal/mol.
# output no

###

Could you please report measured folding stability dG unfold for the items listed next?
Experiment: folding stability dG unfold (combined trypsin and chymotrypsin); higher = more stable
Your answer should be a plain number; it is taken to be in kcal/mol.

Entry SGTRTVTVTGAVLSRLPDGTLVTDPGEAPVTVPVPPPKPRIEVPPELREKLREAAEKLGLELTEEDIETASA [r9_487_TrMRF] , folding stability dG unfold reported as -0.365

In plain terms, SAGGLEIEVFNEKGEPVEVRLRRKEDDTLELEVRFRDASGREYRARATVRVKETEIELGEVDEWEELESAGG [r13_451_TrMRF] has a documented folding stability dG unfold of 2.21

folding stability dG unfold in this record for SAGGSAGGSAGGMEYSISNVTTETFPEGNKTVTVETYTFDDGGTITVTKENGKVLEVNPKSAGGSAGGSAGG [r7_552_JUSTAS] : 0.135

Recorded result, SAGGMTRVLELTVPVDVIGPEELKALLEALAEDAEVEFEIGPDGLLRVRVTVDVPPDPDAPPDLDGESAGGS [r16_535_TrMRF] , folding stability dG unfold: 2.33

// field: folding stability dG unfold; key: SAGGSAGGSAGGSPILIPRPDDYVLVVRIEEPRPLPDGDLAPPRIDVRLMPREEVERLLSAGGSAGGSAGGS [r4_238_TrMRF] ; value = 0.378

Lookup result for SAGGSAGGSAGGKVVKKVKVLTKTPKGGYKVIEVDFTDPSAVVEEAKKAGLEVLKVEEVSAGGSAGGSAGGS [r10_882_TrMRF] ; measured folding stability dG unfold: 0.728

Lab note: SAGGSAGGSAGGKKVILIRGLTPEEIEALAKELEELFPDLKVTIERLPGEEGTLLITVDSAGGSAGGSAGGS [r10_852_TrROS_Hall] gave folding stability dG unfold of 2.38

So for SAGGPEELELTLSIDYPDLTPEQAAEEARRLLEGLGFEVKEIPVTVEPGPGKVTVRARVTVLPPEERSAGGS [r16_287_TrMRF] , the logged folding stability dG unfold turned out to be 1.06

Lab note: SPESIEVQISKSSSTSPSGGSEEIYTVTVTYPATGKTLTKNFTATLNPDGTTNPNGSPEELAAKLAAELLAS [r1_77_JUSTAS] gave folding stability dG unfold of 2

folding stability dG unfold in this record for SVPVAPDKTYEIENIEEGNYLIKGLTLTPLPDGSVKIDKDIEPIEIPPKPPPLKYDPVKGGFIKPNDPLLSA [r9_603_JUSTAS] : 0.434

Lab book: folding stability dG unfold of SAGGDSLPENVIKIELEFEIETEDGSKIELKLEIYISPDNKIYVKAEATIILPDKPIKIEIDFEFDVSAGGS [r16_563_TrMRF] noted as 3.59

Lookup result for SAGGSAGGSAGGKKIEIEFTVKILREPEPGELVPYEVKGKLEINIDPDGNLKIELKFEPGSAGGSAGGSAGG [r11_607_TrMRF] ; measured folding stability dG unfold: 3.06

Data point: SAGGSAGGSASKTIFIPAAVVAANPEKAVEFAEKVREEFEKKGLSVKTEVLPDGGIGIHVGSAGGSAGGSAG [r3_75_TrMRF] ; folding stability dG unfold = 1.88
